Assay: yeast display, Sf9 membrane polyspecificity reagent, FACS + sequencing; frameworks hold sequencing errors
readout.type: polyreactivity (PSR sort gate)

Past entries and their recorded results:
query_sequence=QVQLVESGGGLVQAGGSLRLICAASGRPSVLMLMGLYRQEPGKERELVAAIDDSTDTTYYADSVKGRFTISRDNAKNTVYLQMNSLKPDVTAGYYCADEEGYVKFSGSWSYGYDYWGQGTQVTVSS reported="high polyreactivity"
query_sequence=QVQLVESGGGLVQAGGSLRLSSAASGRIFGKYAMGWYRQAPGKERELVAAIRITGGSTYYADSVKGRFTISRDNAKNTVYLQMNSLKPEDTAVYYSAAVYKYADVIYDYWGQGTQVTVSS reported="high polyreactivity"
query_sequence=QVQLVESGGGLVQAGGSLRLSCAAAGITFKWNAMGWYRQAPGKERELVAVISSDGRTYYADSVKGRFTSSRDNAKNTVYLQMNSLKPEDTAVYYCARSHSYYPAGPYYYWGQGTQVTVSS reported="low polyreactivity"
query_sequence=QVQLVESGRGLVQAGCSLRLSCPASGIIFTTYDMGWYRQAPGKERELVAAISSSTTNTYYADSVKWRFTISRDNAMNTVYLQMNSLKPEETAVYYCAAPYKSNAGFDYWGQGTQVTVSS reported="low polyreactivity"

// query polyreactivity (PSR sort gate) value for entry QVQLVDSGGGLVQAGGSLRLSCAASGSILGQNAMGGNRQAPGKERELVAAITRGGSSTYYADSVKGRFTISRDNAKNTVYLQMNSLKPEDTAVYYCAAYSSIGYRQISGYYWGEGTQVTVSS
low polyreactivity

// query polyreactivity (PSR sort gate) value for entry QVQLVESGGGLVQAGGSLRLSCAASGITFGVYAMGWYRQAPGKERELVAAISWSVGSTYYADSVKGRFTISRDNAKNTVYLQMNSLKPEDTAVYYCAAYYGVGFDYWGQGTQVTVSS
high polyreactivity
